- Test system: PIP5K2B
- Construct: gene PIP4K2B
- condition description: Compound Concentration (nM):1000;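 also: KINOMEscan scanMAX binding as percent activity remaining versus control; lower means stronger binding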
metric name: Percent Control
Lab note: write values as number then unit, every time.

compound	Percent Control
CCn1c(-c2nonc2N)nc2c(C#CC(C)(C)O)nc(OCCNC)cc21.Cl	100%
COc1ccc2cc(-c3c(-c4ccncc4)nc(-c4ccc(S(C)(=O)=O)cc4C)n3C)ccc2c1	83%
CC(C)COC(=O)c1ccc2c(c1)/C(=C/Nc1ccc(S(N)(=O)=O)cc1)C(=O)N2 [GW416981X]	100%

For PIP5K2B, give the measured Percent Control of the entry CN1CCN(C(=O)c2ccc(NC(=O)Nc3ccc(N(C)c4ccnc(Nc5ccc(CS(C)(=O)=O)cc5)n4)cc3)cc2)CC1.Cl [GW830263A]
17%

----------
Each entry below carries its reported Percent Control.
- System: YANK3
- Construct: gene STK32C
- condition description: Compound Concentration (nM):1000
Please reply with the bare figure in % and do not write the unit itself.

compound	observed
O=C(Nc1n[nH]c2nc(-c3ccc(O)cc3)c(Br)cc12)C1CC1	100
CCc1ccc(Oc2nccc(-c3c(-c4ccc(F)cc4)ncn3C3CCNCC3)n2)cc1	32
NS(=O)(=O)c1ccc(N/N=C2\C(=O)Nc3ccc(C(=O)NCc4ccncc4)cc32)cc1 [GW300657X]	100
NS(=O)(=O)c1ccc(N/N=C2\C(=O)Nc3ccc(-c4cnco4)cc32)cc1	63
CC(C)COC(=O)c1ccc2c(c1)/C(=C/Nc1ccc(S(N)(=O)=O)cc1)C(=O)N2 [GW416981X]	100

Fill in Percent Control for record COc1cc(/C=N/Nc2ncnc3[nH]ncc23)ccc1O [GW578748X]
100

Report Percent Control for Nc1ncnc2occ(-c3ccc(NC(=O)Nc4cc(C(F)(F)F)ccc4F)cc3)c12 [GW770249X]
100

Could you please provide reported Percent Control for O=C1Nc2ccc(C(=O)c3ccco3)cc2C1=Cc1cc(Cl)c(O)c(Cl)c1 [GW406108X] ? Thanks!
100

----------
- Tested on: NEK11
- condition description: Compound Concentration (nM):1000
Reported Percent Control values for a set of compounds
Respond with the bare value in %.

compound	unit label	observed
CCS(=O)(=O)c1ccc(OC)c(Nc2ncc(-c3cccc(F)c3)o2)c1 [GW621970X]	%	93

Supply Percent Control value. Item: COc1cccc(-n2ncc3c(N/N=C/c4ccncc4)ncnc32)c1 [GW784752X]
100

Fill in Percent Control for record O=C1Nc2ccc(C(=O)c3ccco3)cc2C1=Cc1cc(Cl)c(O)c(Cl)c1 [GW406108X]
100

Return Percent Control (reported value) for this compound: NS(=O)(=O)c1ccc(N/N=C2\C(=O)Nc3ccc(-c4cnco4)cc32)cc1 [GW276655]
93

Identify measured Percent Control corresponding to NS(=O)(=O)c1ccc(N/N=C2\C(=O)Nc3ccc(Cl)cc32)cc1 [GW280670X]
100

Provide only the value of recorded Percent Control for Cl.O=C(Nc1ccc(Oc2ccc3[nH]c(NC(=O)c4ccccc4)nc3c2)cc1)Nc1cc(C(F)(F)F)ccc1F [GW709042A]
100

Fill in Percent Control for record COc1cccc(-c2c[nH]c3c(N/N=C/c4ccncc4)ncnc23)c1 [GW814408X]
100

----------
- Test system: OSR1
- Construct: gene OXSR1
- condition description: Compound Concentration (nM):1000
Entries annotated with measured Percent Control
# unit: % | format: bare number

Worked cases, answers included:
molecule	unit label	observed
NS(=O)(=O)c1ccc(Nc2ncc(-c3ccccc3)o2)cc1 [GW572399X]	%	100
C/C(Nc1ccc(S(N)(=O)=O)cc1)=C1/C(=O)Nc2ccccc21 [GW335962X]	%	94
CCS(=O)(=O)c1ccc(OC)c(Nc2ncc(-c3cccc(F)c3)o2)c1 [GW621970X]	%	100
Cl.c1ccc(Cc2nc3ccc(Nc4ncnc5ccccc45)cc3[nH]2)cc1 [GR269666A]	%	100
CN(C)CCNC(=O)Nc1ccc(N(C)c2ccnc(Nc3ccc(CS(C)(=O)=O)cc3)n2)cc1.Cl [GW830900A]	%	100

Dear colleague, please send me the reported Percent Control for CC1=C(C(=O)Nc2ccc3[nH]ncc3c2)C(c2ccc(Cl)c(Cl)c2)CC(=O)N1 (centres unmarked) [GSK299115A] when you can.
73

Query Percent Control for COc1cccc(-c2c[nH]c3c(N/N=C/c4ccncc4)ncnc23)c1 [GW814408X]
100
